Hello, the source for this data is patent US20230021388A1, in case you need it.

Target: T1, recombinant human ROR1 extracellular domain (human, UniProt Q01973 30-406)
T1 construct: biotinylated for the filter lifts; also called huROR1-ECD; human ROR1-ECD
T1 sequence (Q01973 30-406 limits assumed): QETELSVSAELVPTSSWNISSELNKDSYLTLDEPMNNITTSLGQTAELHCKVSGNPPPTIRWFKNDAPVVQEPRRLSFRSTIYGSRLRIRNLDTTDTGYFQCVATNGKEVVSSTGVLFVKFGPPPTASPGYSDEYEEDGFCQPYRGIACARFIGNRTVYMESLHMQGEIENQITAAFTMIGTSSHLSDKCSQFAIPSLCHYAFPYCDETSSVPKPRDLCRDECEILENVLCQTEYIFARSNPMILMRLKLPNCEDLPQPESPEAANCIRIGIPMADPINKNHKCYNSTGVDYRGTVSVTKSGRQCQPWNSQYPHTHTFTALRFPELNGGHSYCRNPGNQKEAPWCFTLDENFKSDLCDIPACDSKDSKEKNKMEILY
Assay: capture filter lift
metric name: binding result

- binder: "Ab1 Fab variant L3 Q108A (Fab, V domains shown, Fab) VH: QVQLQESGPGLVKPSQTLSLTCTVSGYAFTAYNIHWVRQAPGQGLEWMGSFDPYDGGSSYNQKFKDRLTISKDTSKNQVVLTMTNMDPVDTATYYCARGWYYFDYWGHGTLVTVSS VL: DIVMTQTPLSLPVTPGEPASISCRASKSISKYLAWYQQKPGQAPRLLIYSGSTLQSGIPPRFSGSGYGTDFTLTINNIESEDAAYYFCQAHDESPYTFGEGTKVEIK"
  measured value: "binds"
- binder: "Ab1 Fab variant L3 T138F (Fab, V domains shown, Fab) VH: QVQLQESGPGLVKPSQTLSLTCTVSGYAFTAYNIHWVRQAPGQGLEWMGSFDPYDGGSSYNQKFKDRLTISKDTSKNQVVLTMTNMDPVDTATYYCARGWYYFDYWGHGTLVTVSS VL: DIVMTQTPLSLPVTPGEPASISCRASKSISKYLAWYQQKPGQAPRLLIYSGSTLQSGIPPRFSGSGYGTDFTLTINNIESEDAAYYFCQQHDESPYFFGEGTKVEIK"
  measured value: "binds"
- binder: "Ab1 Fab variant H3 Y111A (Fab, V domains shown, Fab) VH: QVQLQESGPGLVKPSQTLSLTCTVSGYAFTAYNIHWVRQAPGQGLEWMGSFDPYDGGSSYNQKFKDRLTISKDTSKNQVVLTMTNMDPVDTATYYCARGWAYFDYWGHGTLVTVSS VL: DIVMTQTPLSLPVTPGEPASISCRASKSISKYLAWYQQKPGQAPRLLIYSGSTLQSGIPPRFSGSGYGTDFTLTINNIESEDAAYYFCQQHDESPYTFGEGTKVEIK"
  measured value: "binds"
